Reference source: patent US20140308287A1

As shown below, each of these binders has a reported pEC50 value.
# TGT: T1, human ErbB3-Fc (R&D Systems) (human, UniProt P21860 20-643)
# T1 construct: Bought protein; also called wild-type ErbB3-Fc fusion; immobilized ErbB3; not shown: Fc part of the bought fusion protein; not described
# PROTOCOL: ELISA on ErbB3-Fc, soluble monovalent Sab (Example 42)
pEC50: −log10 of the molar value.
MEASURED_QUANTITY: pEC50

2995-A09 (other) VH: EVQLLESGGGLVQPGGSLRLSCAASGFTFSSYWMHWVRQAPGKGLEWVAGISYGGTYTYYADSVKGRFTISRDNSKNTLYLQMNSLRAEDTAVYYCAKDNFILLNSWFDYWGQGTLVTVSS light: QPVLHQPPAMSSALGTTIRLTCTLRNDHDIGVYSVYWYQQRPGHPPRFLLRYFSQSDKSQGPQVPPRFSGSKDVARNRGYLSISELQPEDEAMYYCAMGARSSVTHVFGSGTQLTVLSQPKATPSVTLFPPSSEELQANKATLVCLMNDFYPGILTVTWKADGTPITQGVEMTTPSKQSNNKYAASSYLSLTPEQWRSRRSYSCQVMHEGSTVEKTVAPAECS	10.35
2995-D11 (other, copies: 1 + 1) VH: EVQLLESGGGLVQPGGSLRLSCAASGFTFSSYWMHWVRQAPGKGLEWVAVISNNGRYKYYADSVKGRFTISRDNSKNTLYLQMNSLRAEDTAVYYCAKDNFILLNSWFDYWGQGTLVTVSS surrogate light: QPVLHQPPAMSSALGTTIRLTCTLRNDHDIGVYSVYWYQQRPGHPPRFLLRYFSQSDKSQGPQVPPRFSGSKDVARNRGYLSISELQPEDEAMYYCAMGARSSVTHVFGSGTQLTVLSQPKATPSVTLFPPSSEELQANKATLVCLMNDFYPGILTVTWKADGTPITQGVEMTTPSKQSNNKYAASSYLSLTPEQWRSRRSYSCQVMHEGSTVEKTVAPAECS	10.57
